Cited source for all entries: PubChem BioAssay (NCI)

# assay procedure: NCI Yeast Anticancer Drug Screen. Data for the rad52 strain (AID 147);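 further: 0% = growth of vehicle-treated control cultures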
# conditions used: S. cerevisiae rad52 mutant growth inhibition; at 1.2 µM; active compounds read high
The panel holds about 79,000 compounds, 15% with a hit somewhere; the sample as a whole holds those more often.
The entries below are paired with their reported growth inhibition.
Report the value in % with no unit label.

compound | units of measure | growth inhibition
COc1ccc2[nH]cc([C@@H]3C4CCC(C4)[C@H]3NCc3cccc(CN[C@H]4C5CCC(C5)[C@@H]4c4c[nH]c5ccc(OC)cc45)c3)c2c1 | % | -28
COC(=O)CCC(NC(=S)N/N=C(\C)c1ccccn1)C(=O)OC (stereo not given) | % | -21
O=C1C=C(Cl)C(=O)C(c2ccc(Cl)cc2)=C1 | % | -33
C[Si](C)(C)/C=C/CCNC(C#N)c1ccccc1 (stereo not given) | % | -10
CCCCC(CC)C(=O)[O][Sn]([CH2]CCC)([CH2]CCC)[O]C(=O)C(CC)CCCC (stereo not given) | % | 6

Q. Any idea what growth inhibition was measured for CCN(CC)CCNc1ccc([N+](=O)[O-])c2nc3ccccc3c(N)c12 ?
A. 1

Q. Any idea what growth inhibition was measured for O=[N+]([O-])c1cccc2nc3ccccc3c(NCCCn3ccnc3[N+](=O)[O-])c12 ?
A. 53

====

# assay procedure: NCI Yeast Anticancer Drug Screen. Data for the CLN2oe strain (AID 163);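 further: 0% = growth of vehicle-only control cultures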
# conditions used: S. cerevisiae CLN2oe strain, at 3.7 µM, active compounds read high
This is part of a sample that, as a whole, favours compounds with a hit. Of some 79,000 tested, about 15% had one in any assay.
assay endpoint: growth inhibition (%)
Report the value in % with no unit label.

Use the examples below as a reference point.
structure string | measured number
Oc1cccc2cc(Cl)cnc12 | 8
N#CNC(N)=Nc1cc2ccccc2c2ccccc12 | 46
C(=Nc1ccc(-c2cc(-c3ccccc3)nc3ccc4ccccc4c23)cc1)c1ccccc1 | 24
O=C(Oc1ccc2c(c1)CN(Cc1ccccc1)CO2)c1ccccc1 | -5
OCc1ccccc1Cc1ccccc1 | 0

Now look at this entry.
Q. Any idea what growth inhibition was measured for CC(=O)ON=C1C=CC(=C(C#N)c2ccc(Cl)cc2)C=C1 ?
A. -8

====

# assay procedure: NCI Yeast Anticancer Drug Screen. Data for the mec2-1 strain (AID 157)
# conditions used: S. cerevisiae mec2-1 strain, at 50.0 µM, active compounds read high
The panel holds about 79,000 compounds, 15% with a hit somewhere; the sample as a whole holds those more often.
The entries below are paired with their reported growth inhibition.
Report the value in % with no unit label.

compound | units of measure | growth inhibition
O=[N+]([O-])c1ccc2c(c1)/C(=N/N=C1c3ccccc3Cc3ccccc31)c1cc([N+](=O)[O-])cc([N+](=O)[O-])c1-2 | % | 81.5
CCOC(=O)C1N=[N+](c2ccccc2)C(=O)/C1=C\n1c(=S)[nH]c2ccc([N+](=O)[O-])cc21 (stereo not given) | % | 17.2
CCOC(=O)COc1c(OC)cc(C2C3=C(COC3=O)Oc3cc4c(cc32)OCO4)cc1OC (stereo not given) | % | 26.8

Q. Any idea what growth inhibition was measured for CCCCc1ccc(-n2c(C)c(COC(=O)NC)c(COC(=O)NC)c2C)cc1 ?
A. 92.6

Q. Any idea what growth inhibition was measured for Nc1nc(N)c2nc(CNc3ccc(C(=O)NC(CCC(=O)O)C(=O)O)cc3F)cnc2n1 (stereo not given) ?
A. 86.7

Q. Any idea what growth inhibition was measured for Cn1c(=O)c2c(nc(N)n2C2OC(CO)C(O)C2O)n(C)c1=O (stereo not given) ?
A. 92

Q. Any idea what growth inhibition was measured for Cc1cc(C)c(NC(=S)NC(=O)c2ccccc2)cc1C ?
A. -0.25
